Attribution: patent US20250361268A1

Biological target: T1, formyl peptide receptor 2 (FPR2) (UniProt P25090 1-351, limits assumed)
T1 sequence (looked up): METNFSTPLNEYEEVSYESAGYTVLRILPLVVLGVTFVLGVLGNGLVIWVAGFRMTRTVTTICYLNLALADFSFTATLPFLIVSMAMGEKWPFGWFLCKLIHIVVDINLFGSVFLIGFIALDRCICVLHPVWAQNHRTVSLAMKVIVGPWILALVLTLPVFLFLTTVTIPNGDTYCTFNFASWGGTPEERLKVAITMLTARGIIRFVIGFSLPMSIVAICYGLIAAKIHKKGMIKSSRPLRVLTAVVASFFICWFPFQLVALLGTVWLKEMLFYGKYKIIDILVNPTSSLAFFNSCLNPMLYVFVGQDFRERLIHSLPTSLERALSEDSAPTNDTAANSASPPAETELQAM
Test: cell-based or functional assay
Attribute Measured: EC50 for [Ca2+]

KWKYYVM (HELM PEPTIDE1{K.W.K.Y.Y.V.[dM].[am]}$$$$V2.0; N-terminus assumed; SMILES CSCC[C@@H](NC(=O)[C@@H](NC(=O)[C@H](Cc1ccc(O)cc1)NC(=O)[C@H](Cc1ccc(O)cc1)NC(=O)[C@H](CCCCN)NC(=O)[C@H](Cc1c[nH]c2ccccc12)NC(=O)[C@@H](N)CCCCN)C(C)C)C(N)=O) [peptide of SEQ ID NO 96]; < 10 nM
PKYKVM (HELM PEPTIDE1{P.K.Y.K.V.[dM].[am]}$$$$V2.0; N-terminus assumed; SMILES CSCC[C@@H](NC(=O)[C@@H](NC(=O)[C@H](CCCCN)NC(=O)[C@H](Cc1ccc(O)cc1)NC(=O)[C@H](CCCCN)NC(=O)[C@@H]1CCCN1)C(C)C)C(N)=O) [peptide of SEQ ID NO 138]; < 10 nM

Here's the next entry for you.
Give the measured EC50 for [Ca2+] for RWRYYYM (HELM PEPTIDE1{R.W.R.Y.Y.Y.[dM].[am]}$$$$V2.0; N-terminus assumed; SMILES CSCC[C@@H](NC(=O)[C@H](Cc1ccc(O)cc1)NC(=O)[C@H](Cc1ccc(O)cc1)NC(=O)[C@H](Cc1ccc(O)cc1)NC(=O)[C@H](CCCNC(=N)N)NC(=O)[C@H](Cc1c[nH]c2ccccc12)NC(=O)[C@@H](N)CCCNC(=N)N)C(N)=O) [peptide of SEQ ID NO 123]
< 10 nM
